System: Plasmodium falciparum
protocol.text: GSK_TCMDC: Inhibition of Plasmodium falciparum 3D7 in whole red blood cells, using parasite LDH activity as an index of growth. Test compounds present at 2uM
Type: functional
Would you mind telling me the reported Inhibition of each entry?
Write the value in % as a bare number.

Record `COc1ccc2c(=O)ccn(CCN3CCC(NCc4ccc5c(n4)NC(=O)CS5)CC3)c2c1.Cl` . Reported Inhibition: 98

Record `c1ccc2c(c1)ncc1c3ccccc3[nH]c21` . Reported Inhibition: 95

Record `Br.C/C=C/C=C/C1=NCCc2cc(OCCC)ccc21` . Reported Inhibition: 87

Record `Cc1noc(C)c1-c1cccc(CNCc2cccc(-c3csc(-c4nc5ccccc5[nH]4)c3)c2)c1.O=C(O)C(F)(F)F` . Reported Inhibition: 100

###

System: Plasmodium falciparum
protocol.text: GSK_TCMDC: Inhibition of Plasmodium falciparum 3D7 in whole red blood cells, using parasite LDH activity as an index of growth. Test compounds present at 2uM
Assay type: functional
Would you mind telling me the reported Inhibition of each entry?
Write the value in % as a bare number.

Record `Cc1ccc(-n2c(Cc3cccc4ccccc34)nnc2SCCC#N)c(C)c1` . Reported Inhibition: 95

Record `FC(F)(F)c1ccc(/C=C/c2cncnc2Nc2ccc3[nH]c(Cc4ccccc4)nc3c2)cc1` . Reported Inhibition: 100

Record `Cc1[nH]c(C)c(-c2ccc(CCc3cccc(C(F)(F)F)c3)nc2)c(=O)c1Cl` . Reported Inhibition: 99

Record `Nc1ncc(-c2ccc3nccc(-c4ccncc4)c3c2)cc1S(=O)(=O)N1CCOCC1` . Reported Inhibition: 100

Record O=C1CN(C(=O)CCC2CCCC2)C(c2ccc(F)cc2)c2cc(F)ccc2N1 (centres undefined) . Reported Inhibition: 100

Record `Cc1cccc2nc(-c3ccc(-c4cccc(CNCCN(C)C)c4)cc3)[nH]c12.O=C(O)C(F)(F)F` . Reported Inhibition: 100

Record C#CC(C)(CO)N1CCCC1 (centres undefined) . Reported Inhibition: 95

Record `COc1c(C2CCN(CCCCNC(=O)C=Cc3cc4cc(Cl)ccc4o3)CC2)ccc2c1CCCC2` . Reported Inhibition: 87

Record `Cc1[nH]c2ccccc2c(=O)c1Br` . Reported Inhibition: 94

###

Test system: HepG2
protocol.text: GSK_TCMDC: Percent inhibition of human HepG2 cell line. Test compounds present at 10uM.
Type: functional
Decision: Inhibition >= 5% yields true (1), all other cases yield false (0).

Check if Inhibition >= 5% (inclusive). Item: `COc1ccc(-c2nc(NC(=O)Cc3coc4cc(OC)ccc34)sc2C)cc1`
true (1)

Check if Inhibition >= 5% (inclusive). Item: `O=C(Nc1ccc2c(c1)CCCN2S(=O)(=O)c1cccs1)c1cc([N+](=O)[O-])ccc1Cl`
true (1)

Check if Inhibition >= 5% (inclusive). Item: `COc1c(C2CCN(CCN3CCC(CNC(=O)c4ccc(-c5ccc(C#N)cc5)cc4)CC3)CC2)ccc2c1CCCC2`
true (1)

Check if Inhibition >= 5% (inclusive). Item: CC1CCCN(C(=O)c2cc(-c3ccccn3)nc3c(Cl)cccc23)C1 (stereo not drawn)
false (0)

Check if Inhibition >= 5% (inclusive). Item: `O=C(Nc1ccc(OC2CCN(Cc3ccc(F)cc3)CC2)c(Cl)c1)c1ccoc1.O=C(O)C(F)(F)F`
false (0)

Check if Inhibition >= 5% (inclusive). Item: CCC(C)NS(=O)(=O)c1ccc2nc(Nc3ccc(C)cc3)n(C3CCCCC3)c2c1 (stereo not drawn)
false (0)

Check if Inhibition >= 5% (inclusive). Item: `COc1cccc2c(NN=Cc3ccccc3F)ccnc12`
true (1)

Check if Inhibition >= 5% (inclusive). Item: `C=C(C)CSc1nc2c(c(=O)n1CCc1ccccc1)C1(CCCC1)Cc1ccccc1-2`
true (1)

Check if Inhibition >= 5% (inclusive). Item: `Fc1cccc(Nc2nc(NCCc3ccc(Cl)cc3)nc(Nc3cccc(F)c3)n2)c1`
false (0)

Check if Inhibition >= 5% (inclusive). Item: `CCN(CCCN1CCCCC1)c1cc(C)nc(Nc2cccc3c2CCCC3)n1.O=C(O)C(F)(F)F`
true (1)

Check if Inhibition >= 5% (inclusive). Item: `Cc1ccc(-c2csc(C)n2)c(C)c1`
true (1)

Check if Inhibition >= 5% (inclusive). Item: `CN1CCN(Cc2ccc(-c3cc4nccc(Nc5ccc(Oc6ccccc6)cc5)c4cc3Cl)o2)CC1`
false (0)

Check if Inhibition >= 5% (inclusive). Item: `FC(F)(F)c1ccc2[nH]c(-c3ccc(-c4ccc(CNCc5cnn(-c6ccccc6)n5)cc4)s3)nc2c1.O=C(O)C(F)(F)F`
true (1)

Check if Inhibition >= 5% (inclusive). Item: `Fc1ccc(OC2CN(c3nccc(NCc4ccccc4Cl)n3)C2)cc1`
false (0)

Check if Inhibition >= 5% (inclusive). Item: `COc1cc(-c2nc3c4ccccc4c4ccccc4c3[nH]2)cc(OC)c1OC`
false (0)

Values were extracted from ChEMBL document CHEMBL1157539.
